Target: UniProt:Q9NR22
Sequence (Q9NR22 whole entry): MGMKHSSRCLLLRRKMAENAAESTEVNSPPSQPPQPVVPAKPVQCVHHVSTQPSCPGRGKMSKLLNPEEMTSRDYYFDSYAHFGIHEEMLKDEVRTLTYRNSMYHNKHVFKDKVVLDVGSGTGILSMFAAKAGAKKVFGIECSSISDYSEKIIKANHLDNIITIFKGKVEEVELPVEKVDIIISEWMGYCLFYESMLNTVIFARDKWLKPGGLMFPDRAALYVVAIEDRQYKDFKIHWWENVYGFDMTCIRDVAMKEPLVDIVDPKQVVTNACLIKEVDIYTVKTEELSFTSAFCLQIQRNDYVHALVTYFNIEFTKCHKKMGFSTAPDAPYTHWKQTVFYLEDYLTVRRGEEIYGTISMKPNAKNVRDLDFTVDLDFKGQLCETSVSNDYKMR
Endpoint Name: IC50

(Q) Returns the measured IC50 for the input molecule. Input: Cc1cc(C)cc([C@@H]2c3cc(C)ccc3NC(=O)CN2C(=O)c2ccc(Br)s2)c1
(A) > 10 µM

----------
Biological target: Protein arginine N-methyltransferase 1 (Homo sapiens)
Sequence (Q99873 whole entry): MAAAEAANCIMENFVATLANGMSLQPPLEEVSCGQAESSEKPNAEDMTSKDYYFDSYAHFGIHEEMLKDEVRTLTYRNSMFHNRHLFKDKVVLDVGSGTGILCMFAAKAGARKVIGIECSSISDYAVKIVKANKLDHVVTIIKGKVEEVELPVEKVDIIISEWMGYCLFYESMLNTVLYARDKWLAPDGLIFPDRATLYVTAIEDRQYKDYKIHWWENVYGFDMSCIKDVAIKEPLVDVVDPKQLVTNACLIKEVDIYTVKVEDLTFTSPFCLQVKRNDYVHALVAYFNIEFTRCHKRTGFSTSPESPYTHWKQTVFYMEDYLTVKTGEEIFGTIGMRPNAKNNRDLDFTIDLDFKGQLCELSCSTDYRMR
Test: Inhibition of PRMT1 (unknown origin) by TR-FRET analysis
Endpoint Name: IC50
Field note: include the unit after the figure.

(Q) Returns the measured IC50 for the input molecule. Input: CNCCN(C)Cc1ccccc1Sc1ccccc1Cl
(A) 5.3 nM

----------
Biological target: UniProt:Q96LA8
Sequence (Q96LA8 whole entry): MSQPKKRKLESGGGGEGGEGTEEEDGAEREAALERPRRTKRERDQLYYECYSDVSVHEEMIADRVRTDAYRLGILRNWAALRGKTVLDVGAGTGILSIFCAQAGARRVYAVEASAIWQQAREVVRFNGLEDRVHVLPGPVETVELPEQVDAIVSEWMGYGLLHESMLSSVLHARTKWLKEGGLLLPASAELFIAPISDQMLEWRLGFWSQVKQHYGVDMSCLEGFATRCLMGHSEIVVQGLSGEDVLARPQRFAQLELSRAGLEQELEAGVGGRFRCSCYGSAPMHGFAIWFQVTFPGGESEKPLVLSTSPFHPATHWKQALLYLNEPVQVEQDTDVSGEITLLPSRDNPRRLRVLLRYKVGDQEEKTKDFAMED
Endpoint Name: IC50 (µM)
Give bare numbers, in µM.

(Q) Returns the measured IC50 for the input molecule. Input: C=CC(C)(C)c1cc(/C=C/C(=O)c2ccc(O)cc2)c(OC)cc1O
(A) 22.3
